Data provenance is the supplement of paper PMC5908809.

Tested on: NK-92 (IL-2 2.5 ng/mL);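 further: normalised to DMSO-only wells as negative and benzethonium chloride as positive control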
assay-method-text: percent inhibition of viability; higher = more inhibition
setup-conditions: 72 h; 10 nM
Reported percent inhibition of viability values follow for various compounds

compound | target-system | percent inhibition of viability, %
NS(=O)(=O)OC[C@@H]1C[C@@H](n2ccc3c(N[C@H]4CCc5ccccc54)ncnc32)C[C@@H]1O [Pevonedistat] (max concentration tested 10000 nM) | NK-92 (IL-2 2.5 ng/mL) | 6.99
CC[C@H](C)C(=O)O[C@H]1C[C@@H](C)C=C2C=C[C@H](C)[C@H](CC[C@@H]3C[C@@H](O)CC(=O)O3)[C@H]21 [Lovastatin] (max concentration tested 10000 nM) | NK-92 (IL-2 2.5 ng/mL) | -4.31
COC(=O)N[C@@H](C)CNc1nccc(-c2cn(C(C)C)nc2-c2cc(Cl)cc(NS(C)(=O)=O)c2F)n1 [Encorafenib] (max concentration tested 1000 nM) | NK-92 (IL-2 2.5 ng/mL) | 17.9
Cc1ccc(C(=O)Nc2ccc(CN3CCN(C)CC3)c(C(F)(F)F)c2)cc1C#Cc1cnc2cccnn12 [Ponatinib] (max concentration tested 1000 nM) | NK-92 (IL-2 2.5 ng/mL) | -23.1
Nc1nc(Cl)nc2c1ncn2[C@@H]1O[C@H](CO)[C@@H](O)[C@@H]1F [Clofarabine] (max concentration tested 10000 nM) | NK-92 (IL-2 2.5 ng/mL) | 2.38
C=CCn1c(=O)c2cnc(Nc3ccc(N4CCN(C)CC4)cc3)nc2n1-c1cccc(C(C)(C)O)n1 [MK1775] (max concentration tested 10000 nM) | NK-92 (IL-2 2.5 ng/mL) | -1.85
N#Cc1ccc2[nH]c(O)c(-c3ccc(CN4CCOCC4)cn3)c2c1 [AZD-1080] (max concentration tested 10000 nM) | NK-92 (IL-2 2.5 ng/mL) | -9.41
CC(C)N(C[C@H]1O[C@@H](n2cnc3c(N)ncnc32)[C@H](O)[C@@H]1O)[C@H]1C[C@@H](CCc2nc3cc(C(C)(C)C)ccc3[nH]2)C1 [EPZ-5676] (max concentration tested 1000 nM) | NK-92 (IL-2 2.5 ng/mL) | -14.1
CN1CCN(c2nc(C3=C(c4c[nH]c5ccccc45)C(=O)NC3=O)c3ccccc3n2)CC1 [Sotrastaurin] (max concentration tested 10000 nM) | NK-92 (IL-2 2.5 ng/mL) | -8.85
Cc1ccc(Nc2nccc(N(C)c3ccc4c(C)n(C)nc4c3)n2)cc1S(N)(=O)=O [Pazopanib] (max concentration tested 10000 nM) | NK-92 (IL-2 2.5 ng/mL) | 3.74
C[C@@H](C(=O)O)c1ccc(-c2ccccc2)c(F)c1 [Tarenflurbil] (max concentration tested 10000 nM) | NK-92 (IL-2 2.5 ng/mL) | -4.75
CC1(COc2ccc3c(c2)ncn3-c2ccc3cccc(N4CCC(N)CC4)c3n2)COC1 [Crenolanib] (max concentration tested 10000 nM) | NK-92 (IL-2 2.5 ng/mL) | -7.66
